measured.target: {BCL-2:compound:VCB} ternary complexes (Homo sapiens, UniProt P10415+P40337)
Sequence (P10415 whole entry): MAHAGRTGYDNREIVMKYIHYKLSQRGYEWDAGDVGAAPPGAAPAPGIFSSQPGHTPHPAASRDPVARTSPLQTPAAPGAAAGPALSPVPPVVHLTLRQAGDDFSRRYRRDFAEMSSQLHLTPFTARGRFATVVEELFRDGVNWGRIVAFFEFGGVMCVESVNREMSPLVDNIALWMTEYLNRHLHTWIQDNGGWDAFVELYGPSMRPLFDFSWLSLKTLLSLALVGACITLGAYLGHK
Sequence (P40337 whole entry): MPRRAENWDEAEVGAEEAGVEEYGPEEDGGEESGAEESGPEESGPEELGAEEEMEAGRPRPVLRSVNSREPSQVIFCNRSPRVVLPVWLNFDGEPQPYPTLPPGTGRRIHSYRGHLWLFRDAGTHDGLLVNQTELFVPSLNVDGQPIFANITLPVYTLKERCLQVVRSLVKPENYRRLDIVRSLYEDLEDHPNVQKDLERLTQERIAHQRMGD
Sequence (Q15370 whole entry partner): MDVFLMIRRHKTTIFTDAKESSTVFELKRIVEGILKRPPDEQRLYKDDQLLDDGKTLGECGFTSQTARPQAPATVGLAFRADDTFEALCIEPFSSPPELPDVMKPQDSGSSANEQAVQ
Sequence (Q15369 whole entry partner): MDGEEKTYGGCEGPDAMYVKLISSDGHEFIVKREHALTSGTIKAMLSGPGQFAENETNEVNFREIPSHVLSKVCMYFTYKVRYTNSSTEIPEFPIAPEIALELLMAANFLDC
method.description: NanoBRET ternary complex formation with BCL-2 and VCB in live 293T cells
Assay type: cell-based
setup.conditions: 6 h
observed.property: formation of {BCL-2:compound:VCB} ternary complexes in live cells

>  <compound>
Cc1ncsc1-c1ccc([C@H](C)NC(=O)[C@@H]2C[C@@H](O)CN2C(=O)[C@@H](NC(=O)CCCCCCCCC(=O)NC[C@@]2(C)CCC(c3ccc(Cl)cc3)=C(CN3CCN(c4ccc(C(=O)NS(=O)(=O)c5ccc(N[C@H](CCN6CCOCC6)CSc6ccccc6)c(S(=O)(=O)C(F)(F)F)c5)cc4)CC3)C2)C(C)(C)C)cc1 [PZ703a]

>  <result>
able to form

$$$$
>  <compound>
Cc1ncsc1-c1ccc([C@H](C)NC(=O)[C@@H]2C[C@@H](O)CN2C(=O)[C@@H](NC(=O)CCCCCCCCC(=O)NCC2(C)CCC(c3ccc(Cl)cc3)=C(CN3CCN(c4ccc(C(=O)NS(=O)(=O)c5ccc(N[C@H](CCN6CCOCC6)CSc6ccccc6)c(S(=O)(=O)C(F)(F)F)c5)cc4)CC3)C2)C(C)(C)C)cc1 (stereo partly drawn)

>  <result>
able to form

$$$$
